Where do these numbers come from? They come from patent US10660877B2.

target-system: human TLR7 (Homo sapiens (Human), UniProt Q9NYK1)
Sequence (Q9NYK1 27-1049): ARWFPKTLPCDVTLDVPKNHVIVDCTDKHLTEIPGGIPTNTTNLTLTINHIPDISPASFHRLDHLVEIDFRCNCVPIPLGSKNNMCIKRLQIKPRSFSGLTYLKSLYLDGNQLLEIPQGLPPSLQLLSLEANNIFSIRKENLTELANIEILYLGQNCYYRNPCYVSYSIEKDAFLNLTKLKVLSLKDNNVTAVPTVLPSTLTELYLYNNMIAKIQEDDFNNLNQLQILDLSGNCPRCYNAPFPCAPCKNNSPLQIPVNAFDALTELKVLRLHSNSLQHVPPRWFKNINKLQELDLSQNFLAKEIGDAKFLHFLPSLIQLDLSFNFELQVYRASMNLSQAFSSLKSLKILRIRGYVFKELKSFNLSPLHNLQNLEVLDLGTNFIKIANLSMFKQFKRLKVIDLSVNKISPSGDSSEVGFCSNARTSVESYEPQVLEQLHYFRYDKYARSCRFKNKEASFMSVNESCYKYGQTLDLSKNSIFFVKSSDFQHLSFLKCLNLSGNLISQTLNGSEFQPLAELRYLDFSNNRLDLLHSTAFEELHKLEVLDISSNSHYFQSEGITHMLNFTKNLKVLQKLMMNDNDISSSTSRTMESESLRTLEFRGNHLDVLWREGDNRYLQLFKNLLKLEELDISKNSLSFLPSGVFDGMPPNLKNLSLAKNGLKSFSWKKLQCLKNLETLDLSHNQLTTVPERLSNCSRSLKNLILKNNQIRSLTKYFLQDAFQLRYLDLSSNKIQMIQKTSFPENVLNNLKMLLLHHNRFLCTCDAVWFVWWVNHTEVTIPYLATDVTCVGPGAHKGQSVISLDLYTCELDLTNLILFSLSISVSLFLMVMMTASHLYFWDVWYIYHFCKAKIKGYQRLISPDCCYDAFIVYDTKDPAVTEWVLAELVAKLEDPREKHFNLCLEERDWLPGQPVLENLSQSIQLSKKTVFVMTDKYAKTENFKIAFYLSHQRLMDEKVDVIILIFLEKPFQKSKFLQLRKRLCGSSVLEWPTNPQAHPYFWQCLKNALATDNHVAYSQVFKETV
assay-comment: TLR7 inhibition reporter assay (HEK-Blue cells, SEAP reporter, gardiquimod stimulation)
Assay type: cell-based
cond: HEK-Blue cells overexpressing human TLR7, gardiquimod 7.5 μM
measured-quantity: IC50 (nM)

Check out these entries, answers already filled in.
compound: Cc1cc(-c2[nH]c3ccc(C4CCN(C(=O)C5(C(N)=O)CC5)CC4)cc3c2C(C)C)cc(C)n1
units-symbol: nM
IC50: 12.4

compound: CCc1c(-c2ccncc2)[nH]c2ccc(C3CCNCC3)cc12
units-symbol: nM
IC50: 96.3

A = COC[C@@H]1CCCN1C(=O)CN1CCC(c2ccc3[nH]c(-c4cc(C)nc(C)c4)c(C(C)C)c3c2)CC1
B = Cc1cc(-c2[nH]c3ccc(C4CCN(C(=O)CN5CC(=O)NC5=O)CC4)cc3c2C(C)C)cc(C)n1
Exercise: Which has the smaller recorded IC50, A or B ? Answer format: the label of the selected item.
Key: A
(A: 3.7 nM, B: 15 nM)

----------
target-system: human TLR9 (Homo sapiens (Human), UniProt Q9NR96)
Sequence (Q9NR96 26-1032): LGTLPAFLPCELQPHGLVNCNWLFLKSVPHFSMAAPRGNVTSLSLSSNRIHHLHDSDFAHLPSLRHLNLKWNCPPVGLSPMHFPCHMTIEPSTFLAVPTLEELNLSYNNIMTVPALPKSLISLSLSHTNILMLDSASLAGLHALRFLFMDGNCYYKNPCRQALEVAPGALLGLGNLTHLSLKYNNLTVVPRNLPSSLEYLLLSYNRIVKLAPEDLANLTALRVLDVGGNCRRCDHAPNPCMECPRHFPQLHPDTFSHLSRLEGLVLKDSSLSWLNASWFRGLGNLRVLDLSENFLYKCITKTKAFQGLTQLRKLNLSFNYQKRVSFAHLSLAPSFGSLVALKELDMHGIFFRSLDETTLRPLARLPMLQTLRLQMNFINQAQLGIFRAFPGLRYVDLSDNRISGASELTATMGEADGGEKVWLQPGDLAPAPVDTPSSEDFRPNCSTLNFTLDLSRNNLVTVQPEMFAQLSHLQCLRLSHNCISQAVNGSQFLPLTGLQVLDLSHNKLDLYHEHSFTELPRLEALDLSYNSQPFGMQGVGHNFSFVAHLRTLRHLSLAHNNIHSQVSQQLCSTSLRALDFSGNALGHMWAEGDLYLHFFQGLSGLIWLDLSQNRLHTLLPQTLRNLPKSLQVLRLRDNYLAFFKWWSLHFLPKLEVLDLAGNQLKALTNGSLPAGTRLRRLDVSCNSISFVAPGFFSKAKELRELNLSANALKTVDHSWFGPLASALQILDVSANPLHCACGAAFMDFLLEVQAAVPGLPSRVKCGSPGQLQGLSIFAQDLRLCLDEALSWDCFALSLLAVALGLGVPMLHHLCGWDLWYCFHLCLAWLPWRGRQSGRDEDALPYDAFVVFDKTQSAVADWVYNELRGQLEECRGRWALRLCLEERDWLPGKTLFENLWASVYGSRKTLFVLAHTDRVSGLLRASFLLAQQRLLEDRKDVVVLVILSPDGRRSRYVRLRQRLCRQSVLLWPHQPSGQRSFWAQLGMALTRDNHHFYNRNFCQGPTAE
assay-comment: TLR9 inhibition reporter assay (HEK-Blue cells, SEAP reporter, ODN2006 stimulation);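 also: compounds tested over 0.05 nM to 50 µM, 22 h incubation, inhibition taken as SEAP signal drop from agonist plus DMSO wells toward a known inhibitor control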
cond: read-out: TLR9 IC50, HEK-Blue cells overexpressing human TLR9, ODN2006 5 nM
measured-quantity: IC50 (nM)

Some solved entries appear below for comparison.
compound: CCc1cc(-c2[nH]c3ccc(C4CCNCC4)cc3c2C(C)C)c(F)cn1
IC50 [nM]: 3690
//
compound: Cc1nccc(-c2[nH]c3ccc(C4CCN(C)CC4)cc3c2C(C)C)c1C
IC50 [nM]: 1540
//
compound: CNCCN1CCC(c2ccc3[nH]c(-c4ccnc(C(F)(F)F)c4)c(C)c3c2)CC1
IC50 [nM]: 525
//
compound: Cc1cc(-c2[nH]c3ccc(C4CCN(C5COC5)CC4)cc3c2C(C)C)ccn1
IC50 [nM]: 2160
//
compound: Cc1cc(-c2[nH]c3ccc(C4CCN(Cc5ccn(C)n5)CC4)cc3c2C(C)C)c(F)cn1
IC50 [nM]: 1480

P = Cc1cc(-c2[nH]c3ccc(C4CCN(CC(C)(C)C)CC4)cc3c2C(C)C)cc(C)n1
Q = COc1cc(OC)nc(CN2CCC(c3ccc4[nH]c(-c5cc(C)ncc5C)c(C(C)C)c4c3)CC2)n1
R = Cc1c(-c2ccncc2)[nH]c2ccc(C3CCN(C4CCN(CC(C)C)CC4)CC3)cc12
S = Cc1cc(-c2[nH]c3ccc(C4CCN(C(=O)CNC5CCOC5)CC4)cc3c2C(C)C)cc(C)n1 (stereo not shown)
Exercise: List from greatest to least IC50. A complete answer lists every label in the requested sequence.
Key: Q, S, P, R
(Q: 1680 nM, S: 909 nM, P: 532 nM, R: 124 nM)

P = Cc1cc(-c2[nH]c3ccc(C4CCN(Cc5ccccn5)CC4)cc3c2C(C)C)cc(C)n1
Q = CNC(=O)CN1CCC(c2ccc3[nH]c(-c4cc(C)nc(C5CC5)c4)c(C(C)C)c3c2)CC1
R = Cc1cc(-c2[nH]c3ccc(C4CCN(C(=O)CCN5CCOCC5)CC4)cc3c2C(C)C)c(F)cn1
S = Cc1cc(-c2[nH]c3ccc(C4CCNCC4)cc3c2C(C)C)c(Cl)c(C)n1
T = Cc1cc(-c2[nH]c3ccc(C4CCN(Cc5ncon5)CC4)cc3c2C(C)C)cc(C)n1
Exercise: Order the records so the highest IC50 appears first and the lowest last. Field: ranking. Enter the labels in the order requested.
Key: S, R, T, Q, P

----------
target-system: UniProtKB Q9NYK1
assay-comment: TLR7 inhibition reporter assay (HEK-Blue cells, SEAP reporter, gardiquimod stimulation)
Format: cell-based
cond: HEK-Blue cells, gardiquimod 7.5 μM
pIC50: −log10 of the molar value.
measured-quantity: pIC50

compound: Cc1cc(-c2[nH]c3ccc(C4CCN(CC(O)C(C)C)CC4)cc3c2C(C)C)cc(C)n1 (centres unmarked) [Example 849]
measured-quantity: pIC50
val: 8.85
//
compound: Cc1cc(-c2[nH]c3ccc(C4CCN(CC(C)(C)O)CC4)cc3c2C(C)C)c(C)cn1
measured-quantity: pIC50
val: 7.98
//
compound: Cc1nc[nH]c1CN1CCC(c2ccc3[nH]c(-c4ccnc(N)c4)c(C(C)C)c3c2)CC1
measured-quantity: pIC50
val: 6.67
//
compound: Cc1cc(-c2[nH]c3ccc(C4CCN(Cc5cnc[nH]5)CC4)cc3c2C(C)C)c(N)cn1
measured-quantity: pIC50
val: 7.44
//
compound: CCc1c(-c2ccnc(C)c2)[nH]c2ccc(C3CCN(C(=O)NC4CCNCC4)CC3)cc12
measured-quantity: pIC50
val: 6.83
//
compound: Cc1cc(-c2[nH]c3ccc(C4CCN(C(=O)C(=O)NCC5CCNCC5)CC4)cc3c2C(C)C)cc(C)n1
measured-quantity: pIC50
val: 7.87

A = Cc1cc(-c2[nH]c3ccc(C4CCN(Cc5cnc(C)[nH]5)CC4)cc3c2C(C)C)ccn1
B = CCc1c(-c2ccnc(C)c2)[nH]c2ccc(C3CCN(CC(=O)O)CC3)cc12
Exercise: Larger number for pIC50: A , or B ? When you have decided, please share the label of that item.
Key: A

----------
target-system: human TLR9 (Homo sapiens (Human))
assay-comment: TLR9 inhibition reporter assay (HEK-Blue cells, SEAP reporter, ODN2006 stimulation)
cond: read-out: TLR9 IC50, HEK-Blue cells, ODN2006 5 nM
pIC50: −log10 of the molar value.
measured-quantity: pIC50

These solved cases illustrate the format of a correct answer.
compound-string: Cc1cc(-c2[nH]c3ccc(C4CCN(CC(C)(C)O)CC4)cc3c2C(C)C)c(C)cn1
target-system: human TLR9 (Homo sapiens (Human))
pIC50: 5.77
--
compound-string: Cc1cc(-c2[nH]c3ccc(C4CCN(CC5CC5)CC4)cc3c2C(C)C)ccn1
target-system: human TLR9 (Homo sapiens (Human))
pIC50: 5.77

A = CCN1CCC(N2CCC(c3ccc4[nH]c(-c5ccncc5)c(C)c4c3)CC2)CC1
B = CCc1c(-c2ccnc(C)c2)[nH]c2ccc(C3CCN(C(=O)NC4CCNCC4)CC3)cc12
Exercise: Which shows the larger pIC50 value: A or B ? Refer to your chosen entry by its label in the reply.
Key: A

----------
target-system: UniProt Q9NYK1
assay-comment: TLR7 inhibition reporter assay (HEK-Blue cells, SEAP reporter, gardiquimod stimulation)
Assay type: cell-based
cond: HEK-Blue cells overexpressing human TLR7, gardiquimod 7.5 μM
measured-quantity: IC50 (nM)

molecule: CCc1c(-c2ccnc(C)c2)[nH]c2c(F)cc(C3CCNCC3)cc12 [Example 81]
target-system: UniProt Q9NYK1
measured-quantity: IC50
val: 614

molecule: CCc1c(-c2cc(C)nc(C)c2)[nH]c2ccc(C3CCN(C(=O)C4CC(=O)N(C)C4)CC3)cc12 (centres unmarked) [Example 530]
target-system: UniProt Q9NYK1
measured-quantity: IC50
val: 52.2

molecule: Cc1cc(-c2[nH]c3ccc(C4CCN(CC5CCCC5)CC4)cc3c2C(C)C)cc(C)n1 [Example 468]
target-system: UniProt Q9NYK1
measured-quantity: IC50
val: 17.8

1 = CNCCN1CCC(c2ccc3[nH]c(-c4ccnc(OC)c4)c(C(C)C)c3c2)CC1 [Example 783]
2 = Cc1cc(-c2[nH]c3ccc(C4CCN(C(=O)c5c(C)n[nH]c5C)CC4)cc3c2C(C)C)cc(C)n1 [Example 121]
Exercise: Which has the higher IC50, 1 or 2 ? Answer by quoting the chosen item's label.
Key: 1
(1: 55.1 nM, 2: 30 nM)

----------
target-system: human TLR8 (Homo sapiens (Human), UniProt Q9NR97)
Sequence (Q9NR97 27-1041): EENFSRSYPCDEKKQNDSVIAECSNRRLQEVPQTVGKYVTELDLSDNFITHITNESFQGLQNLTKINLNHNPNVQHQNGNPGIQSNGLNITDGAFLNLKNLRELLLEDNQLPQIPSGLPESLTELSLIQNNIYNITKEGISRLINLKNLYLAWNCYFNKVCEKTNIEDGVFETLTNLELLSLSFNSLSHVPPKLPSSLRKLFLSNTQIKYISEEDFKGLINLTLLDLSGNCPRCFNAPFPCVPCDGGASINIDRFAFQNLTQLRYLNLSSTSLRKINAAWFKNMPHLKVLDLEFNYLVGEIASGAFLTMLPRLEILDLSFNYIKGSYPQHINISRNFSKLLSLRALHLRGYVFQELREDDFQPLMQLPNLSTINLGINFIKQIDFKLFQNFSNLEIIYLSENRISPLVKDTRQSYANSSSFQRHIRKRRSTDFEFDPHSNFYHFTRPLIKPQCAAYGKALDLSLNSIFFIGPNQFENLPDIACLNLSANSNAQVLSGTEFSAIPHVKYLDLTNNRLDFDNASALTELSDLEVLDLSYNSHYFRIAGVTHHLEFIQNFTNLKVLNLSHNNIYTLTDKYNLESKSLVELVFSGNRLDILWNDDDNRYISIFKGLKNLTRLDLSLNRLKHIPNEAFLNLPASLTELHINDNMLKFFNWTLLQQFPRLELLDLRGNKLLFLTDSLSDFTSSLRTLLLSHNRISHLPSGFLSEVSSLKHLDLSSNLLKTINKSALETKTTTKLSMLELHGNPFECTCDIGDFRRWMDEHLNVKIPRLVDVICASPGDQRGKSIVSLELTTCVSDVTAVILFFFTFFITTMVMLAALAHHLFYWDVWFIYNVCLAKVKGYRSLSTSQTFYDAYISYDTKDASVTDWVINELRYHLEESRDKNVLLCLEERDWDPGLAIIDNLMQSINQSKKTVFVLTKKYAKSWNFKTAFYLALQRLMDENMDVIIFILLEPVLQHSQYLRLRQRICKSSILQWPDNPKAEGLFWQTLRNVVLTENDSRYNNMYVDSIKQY
assay-comment: TLR8 inhibition reporter assay (HEK-Blue cells, SEAP reporter, R848 stimulation);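 also: compounds tested from 0.05 nM to 50 µM, 22 h at 37 °C, SEAP measured with HEK-Blue Detection, inhibition relative to agonist plus DMSO versus a known inhibitor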
cond: read-out: TLR8 IC50, HEK-Blue cells overexpressing human TLR8, R848 15.9 μM
pIC50: −log10 of the molar value.
measured-quantity: pIC50

1 = Cc1cc(-c2[nH]c3ccc(C4CCN(C(=O)CCN(C)C)CC4)cc3c2C(C)C)ccn1 [Example 578]
2 = Cc1cc(-c2[nH]c3ccc(C4CCN(C(=O)CC(F)(F)F)CC4)cc3c2C(C)C)ccn1 [Example 600]
Exercise: I'm curious whether 1 or 2 has the smaller pIC50 number. Which is it? Answer by quoting the chosen item's label.
Key: 2

----------
target-system: human TLR9 (Homo sapiens (Human))
assay-comment: TLR9 inhibition reporter assay (HEK-Blue cells, SEAP reporter, ODN2006 stimulation)
cond: read-out: TLR9 IC50, HEK-Blue cells overexpressing human TLR9, ODN2006 5 nM
measured-quantity: IC50 (nM)

Example entries begin here.
molecule: Cc1cc(-c2[nH]c3ccc(C4CCNCC4)cc3c2C(C)C(F)(F)F)cc(C)n1 (centres unmarked) [Example 92]
target-system: human TLR9 (Homo sapiens (Human))
val: 446

molecule: Cc1cc(-c2[nH]c3ccc(C4CCN(C(=O)C5(C)CC5)CC4)cc3c2C(C)C)ccn1 [Example 610]
target-system: human TLR9 (Homo sapiens (Human))
val: 47300

I = CC(C)c1c(-c2ccnc(Cl)c2C#N)[nH]c2ccc(C3CCNCC3)cc12 [Example 36]
II = CC(C)c1c(-c2ccnc(C(C)(C)O)c2)[nH]c2ccc(C3CCNCC3)cc12 [Example 58]
III = Cc1cc(-c2[nH]c3ccc(C4CCN(Cc5ccn(C)n5)CC4)cc3c2C(C)C)cc(C)n1 [Example 445]
IV = Cc1cc(-c2[nH]c3ccc(C4CCN(CC(=O)N5CCC[C@@H](O)C5)CC4)cc3c2C(C)C)cc(C)n1 [Example 209]
V = CCN(CC)CCCN1CCC(c2ccc3[nH]c(-c4cc(C)nc(C)c4)c(C(C)C)c3c2)CC1 [Example 671]
Exercise: Please rank these molecules by IC50 in descending order. Please list the labels according to the requested order.
Key: I, II, IV, III, V
(I: 4870 nM, II: 888 nM, IV: 604 nM, III: 314 nM, V: 76 nM)
